Here the recorded Activity is given for each entry.
Tgt: Melanocortin receptor 3 (Homo sapiens, UniProt P41968)
Sequence (P41968 whole entry): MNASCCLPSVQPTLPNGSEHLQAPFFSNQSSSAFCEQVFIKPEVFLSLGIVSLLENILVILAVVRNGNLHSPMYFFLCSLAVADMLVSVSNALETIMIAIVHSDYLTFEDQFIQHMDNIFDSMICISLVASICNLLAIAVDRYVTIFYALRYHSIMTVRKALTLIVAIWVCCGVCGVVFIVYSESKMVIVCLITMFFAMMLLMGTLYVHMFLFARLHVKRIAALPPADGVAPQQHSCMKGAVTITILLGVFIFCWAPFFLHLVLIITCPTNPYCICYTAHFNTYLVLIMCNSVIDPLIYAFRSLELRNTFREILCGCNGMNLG
Protocol summary: Agonist activity at human melanocortin 3 receptor expressed in HEK293 cells assessed as cAMP accumulation at 10 uM realtive to MT2
Type: functional, cell-based
Form entry: value (%) — number only.

{"Smiles representation": "N=C(N)NCCC[C@@H]1NC(=O)[C@@H](Cc2ccccc2)NC(=O)[C@H](Cc2cnc[nH]2)NC(=O)c2cc([N+](=O)[O-])ccc2SC[C@@H](C(N)=O)NC(=O)[C@@H](Cc2ccc3ccccc3c2)NC1=O", "Tgt": "Melanocortin receptor 3 (Homo sapiens, UniProt P41968)", "Activity (%)": 75}
{"Smiles representation": "N=C(N)NCCC[C@@H]1NC(=O)[C@@H](Cc2ccccc2)NC(=O)[C@H](Cc2cnc[nH]2)NC(=O)c2cc([N+](=O)[O-])ccc2SC[C@@H](C(N)=O)NC(=O)[C@@H](Cc2ccccc2)NC1=O", "Tgt": "Melanocortin receptor 3 (Homo sapiens, UniProt P41968)", "Activity (%)": 0}
{"Smiles representation": "N=C(N)NCCC[C@@H]1NC(=O)[C@@H](Cc2ccccc2)NC(=O)[C@H](Cc2cnc[nH]2)NC(=O)c2cc([N+](=O)[O-])ccc2SC[C@@H](C(N)=O)NC(=O)[C@@H](Cc2c[nH]c3ccccc23)NC1=O", "Tgt": "Melanocortin receptor 3 (Homo sapiens, UniProt P41968)", "Activity (%)": 0}
{"Smiles representation": "N=C(N)NCCC[C@@H]1NC(=O)[C@H](Cc2ccc(N)cc2)NC(=O)[C@H](Cc2cnc[nH]2)NC(=O)c2cc([N+](=O)[O-])ccc2SC[C@@H](C(N)=O)NC(=O)[C@H](Cc2c[nH]c3ccccc23)NC1=O", "Tgt": "Melanocortin receptor 3 (Homo sapiens, UniProt P41968)", "Activity (%)": 5}

With those in mind, consider the next compound.
Lookup: Return reported Activity; argument: "N=C(N)NCCC[C@@H]1NC(=O)[C@@H](Cc2ccccc2)NC(=O)[C@H]2C[C@@H](O)CN2C(=O)c2cc([N+](=O)[O-])ccc2SC[C@@H](C(N)=O)NC(=O)[C@H](Cc2c[nH]c3ccccc23)NC1=O"
Found: 0

====

Tgt: Melanocortin receptor 3 (Homo sapiens)
Protocol summary: Agonist activity at human melanocortin 3 receptor expressed in HEK293 cells assessed as cAMP accumulation at 10 uM realtive to MT2
Type: functional, cell-based
This section presents compounds with their documented Activity values.
Output spec: scalar in %, unitless text.

Answered cases to consult:
{"Smiles representation": "N=C(N)NCCC[C@@H]1NC(=O)[C@H](Cc2ccc3ccccc3c2)NC(=O)[C@H](Cc2cnc[nH]2)NC(=O)c2cc([N+](=O)[O-])ccc2SC[C@@H](C(N)=O)NC(=O)[C@H](Cc2c[nH]c3ccccc23)NC1=O", "Tgt": "Melanocortin receptor 3 (Homo sapiens)", "Unit tag": "%", "Activity": 21}
{"Smiles representation": "NCCCC[C@@H]1NC(=O)[C@@H](Cc2ccccc2)NC(=O)[C@H](Cc2cnc[nH]2)NC(=O)c2cc([N+](=O)[O-])ccc2SC[C@@H](C(N)=O)NC(=O)[C@H](Cc2c[nH]c3ccccc23)NC1=O", "Tgt": "Melanocortin receptor 3 (Homo sapiens)", "Unit tag": "%", "Activity": 0}
{"Smiles representation": "NCCC[C@@H]1NC(=O)[C@@H](Cc2ccccc2)NC(=O)[C@H](Cc2cnc[nH]2)NC(=O)c2cc([N+](=O)[O-])ccc2SC[C@@H](C(N)=O)NC(=O)[C@H](Cc2c[nH]c3ccccc23)NC1=O", "Tgt": "Melanocortin receptor 3 (Homo sapiens)", "Unit tag": "%", "Activity": 0}
{"Smiles representation": "N=C(N)NCCC[C@H]1NC(=O)[C@@H](Cc2ccccc2)NC(=O)[C@H](Cc2cnc[nH]2)NC(=O)c2cc([N+](=O)[O-])ccc2SC[C@@H](C(N)=O)NC(=O)[C@H](Cc2c[nH]c3ccccc23)NC1=O", "Tgt": "Melanocortin receptor 3 (Homo sapiens)", "Unit tag": "%", "Activity": 0}
{"Smiles representation": "N=C(N)NCCC[C@@H]1NC(=O)[C@@H](Cc2ccccc2)NC(=O)[C@H](Cc2cnc[nH]2)NC(=O)c2cc([N+](=O)[O-])ccc2SC[C@@H](C(N)=O)NC(=O)[C@H](Cc2ccccc2)NC1=O", "Tgt": "Melanocortin receptor 3 (Homo sapiens)", "Unit tag": "%", "Activity": 0}
{"Smiles representation": "N=C(N)NCCC[C@@H]1NC(=O)[C@@H](Cc2ccccc2)NC(=O)C2(Cc3ccccc3C2)NC(=O)c2cc([N+](=O)[O-])ccc2SC[C@@H](C(N)=O)NC(=O)[C@H](Cc2c[nH]c3ccccc23)NC1=O", "Tgt": "Melanocortin receptor 3 (Homo sapiens)", "Unit tag": "%", "Activity": 40}
{"Smiles representation": "N=C(N)NCCC[C@@H]1NC(=O)[C@@H](Cc2ccccc2)NC(=O)[C@H]2CCCN2C(=O)c2cc([N+](=O)[O-])ccc2SC[C@@H](C(N)=O)NC(=O)[C@H](Cc2c[nH]c3ccccc23)NC1=O", "Tgt": "Melanocortin receptor 3 (Homo sapiens)", "Unit tag": "%", "Activity": 0}
{"Smiles representation": "N=C(N)NCCC[C@@H]1NC(=O)[C@H](CCCNC(N)=O)NC(=O)[C@H](Cc2cnc[nH]2)NC(=O)c2cc([N+](=O)[O-])ccc2SC[C@@H](C(N)=O)NC(=O)[C@H](Cc2c[nH]c3ccccc23)NC1=O", "Tgt": "Melanocortin receptor 3 (Homo sapiens)", "Unit tag": "%", "Activity": 0}
{"Smiles representation": "N=C(N)NCCC[C@@H]1NC(=O)[C@@H](Cc2ccccc2)NC(=O)[C@H](Cc2cnc[nH]2)NC(=O)c2cc([N+](=O)[O-])ccc2SC[C@@H](C(N)=O)NC(=O)[C@H](Cc2c[nH]c3ccccc23)NC1=O", "Tgt": "Melanocortin receptor 3 (Homo sapiens)", "Unit tag": "%", "Activity": 100}

Lookup: State its Activity on Melanocortin receptor 3 (Homo sapiens): "N=C(N)NCCC[C@@H]1NC(=O)[C@@H](Cc2ccc3ccccc3c2)NC(=O)[C@H](Cc2cnc[nH]2)NC(=O)c2cc([N+](=O)[O-])ccc2SC[C@@H](C(N)=O)NC(=O)[C@H](Cc2c[nH]c3ccccc23)NC1=O"
Found: 0

Values were extracted from ChEMBL document CHEMBL1150264.
